target: T1, VASP-EVH1 domain (UniProt P50552 1-115); assay: fluorescence titration (FT)
T1 construct: domain: EVH1
T1 sequence (P50552 1-115 limits assumed): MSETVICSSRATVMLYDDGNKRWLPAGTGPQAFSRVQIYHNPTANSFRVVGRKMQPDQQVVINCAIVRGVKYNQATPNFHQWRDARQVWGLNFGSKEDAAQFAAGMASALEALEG
[ ]: non-standard residue; d: D form. Phe(2-Cl) = N[C@@H](Cc1ccccc1Cl)C(=O)O
Reported Kd values for a set of binders
Observable: Kd (µM)

1. Ac-[Phe(2-Cl)]PPPP-OH (SMILES CC(=O)N[C@@H](Cc1ccccc1Cl)C(=O)N1CCC[C@H]1C(=O)N1CCC[C@H]1C(=O)N1CCC[C@H]1C(=O)N1CCC[C@H]1C(=O)O) [Ac-Phe(2-Cl)-PPPP-OH]    13
2. Ac-FPPPP-OH (Starting ligand shortened to the FPPPP core motif; also called FPPPP core motif ligand) [Ac-FPPPP-OH]    780

Recorded values, source patent US20170320910A1.
